Cited source for all entries: patent US20230203023A1

experiment: Kinetic solubility test in water and bio-relevant media (SGF, FaSSIF, FeSSIF); type: physicochemical; settings: FaSSIF, 37 °C, pH 6.5, fassif, thermodynamic from solid, FaSSIF; 1 hour; 37° C.; read-out: S: solubility
Parameter: solubility at 1 h (µg/mL)

• O=C(O)c1ccc2nc(CN3CC=C(c4cccc(OCc5ccc(Cl)cc5F)c4)CC3)n(C[C@@H]3CCO3)c2c1 [Compound I] = 200
